target: α4β1 integrin (Homo sapiens, UniProt P05556+P13612); construct: Ramos cells fluorescently labeled with calcein; endogenous in cells; host or cells: Ramos cells; test: Inhibition of adhesion of calcein-labeled Ramos cells to CS1 (fibronectin) peptide-conjugated ovalbumin; format: cell-based; conditions: Table 1; dose required to give 50% inhibition; Ramos cell adhesion to CS1-ovalbumin, 30 minutes at 37° C
Sequence (P13612 34-1032): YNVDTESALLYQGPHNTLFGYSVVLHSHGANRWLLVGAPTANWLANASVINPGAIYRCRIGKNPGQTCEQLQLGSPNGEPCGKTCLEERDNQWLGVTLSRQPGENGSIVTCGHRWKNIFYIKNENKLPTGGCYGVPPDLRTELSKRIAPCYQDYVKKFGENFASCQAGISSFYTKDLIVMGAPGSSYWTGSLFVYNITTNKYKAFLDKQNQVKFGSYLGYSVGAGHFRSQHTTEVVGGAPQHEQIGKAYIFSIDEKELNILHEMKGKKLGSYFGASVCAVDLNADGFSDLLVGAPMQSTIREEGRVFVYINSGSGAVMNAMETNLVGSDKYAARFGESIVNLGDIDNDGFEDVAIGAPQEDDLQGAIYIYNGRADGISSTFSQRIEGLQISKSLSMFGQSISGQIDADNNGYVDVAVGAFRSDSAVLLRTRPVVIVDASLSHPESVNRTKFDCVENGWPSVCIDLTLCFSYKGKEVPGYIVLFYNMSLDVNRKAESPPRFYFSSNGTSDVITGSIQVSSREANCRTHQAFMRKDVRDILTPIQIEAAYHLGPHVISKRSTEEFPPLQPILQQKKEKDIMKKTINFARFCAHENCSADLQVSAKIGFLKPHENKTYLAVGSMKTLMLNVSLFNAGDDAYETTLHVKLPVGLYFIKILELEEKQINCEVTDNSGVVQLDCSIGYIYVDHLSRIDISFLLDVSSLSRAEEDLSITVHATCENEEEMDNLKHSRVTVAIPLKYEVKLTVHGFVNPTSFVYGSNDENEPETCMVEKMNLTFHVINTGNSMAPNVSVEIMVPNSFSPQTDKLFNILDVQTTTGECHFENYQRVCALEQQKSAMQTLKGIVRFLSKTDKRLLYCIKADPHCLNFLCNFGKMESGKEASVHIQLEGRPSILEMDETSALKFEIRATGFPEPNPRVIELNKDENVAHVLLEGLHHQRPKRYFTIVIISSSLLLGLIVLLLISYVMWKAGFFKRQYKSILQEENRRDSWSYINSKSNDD
Sequence (P05556 21-798): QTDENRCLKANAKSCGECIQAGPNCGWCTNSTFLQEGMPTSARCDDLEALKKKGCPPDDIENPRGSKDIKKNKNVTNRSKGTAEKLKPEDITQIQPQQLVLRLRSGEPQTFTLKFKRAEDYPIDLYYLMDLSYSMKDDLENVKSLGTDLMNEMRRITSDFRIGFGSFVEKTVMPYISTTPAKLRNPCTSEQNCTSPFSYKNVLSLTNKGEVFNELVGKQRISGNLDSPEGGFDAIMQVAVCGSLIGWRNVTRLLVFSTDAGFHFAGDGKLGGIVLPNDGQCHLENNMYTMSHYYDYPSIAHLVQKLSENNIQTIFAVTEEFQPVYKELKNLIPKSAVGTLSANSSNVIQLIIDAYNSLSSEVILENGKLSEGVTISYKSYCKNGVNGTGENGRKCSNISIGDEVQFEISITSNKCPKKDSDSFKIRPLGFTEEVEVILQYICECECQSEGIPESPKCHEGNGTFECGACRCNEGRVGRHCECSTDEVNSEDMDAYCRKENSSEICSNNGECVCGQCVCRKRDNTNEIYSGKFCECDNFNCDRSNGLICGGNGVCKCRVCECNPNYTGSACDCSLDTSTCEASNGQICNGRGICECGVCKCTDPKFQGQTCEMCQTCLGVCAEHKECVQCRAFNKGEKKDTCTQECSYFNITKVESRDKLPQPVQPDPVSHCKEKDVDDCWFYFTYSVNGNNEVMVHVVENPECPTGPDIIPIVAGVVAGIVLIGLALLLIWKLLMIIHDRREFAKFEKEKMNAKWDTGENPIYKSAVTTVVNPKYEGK
pIC50: −log10 of the molar value.
Hi all, reminder that labels come from pIC50, split as 1: < 6; 2: ≥ 6 and < 7; 3: ≥ 7

Would you please look over these solved cases?
[[record]]
compound = "CSCC[C@@H](CSc1ccc(NS(=O)(=O)Cc2ccccc2)cc1)NC(=O)N[C@@H](CC(=O)O)c1ccc2c(c1)OCO2"
category = 2

[[record]]
compound = "CC(C)[C@H](CSCc1ccccc1)NC(=O)NC(CC(=O)O)c1ccc2c(c1)OCO2 (stereo partly drawn)"
category = 1

[[record]]
compound = "CSCC[C@@H](CSc1cccc(NC(=O)Nc2ccccc2C)c1)NC(=O)N[C@@H](CC(=O)O)c1ccc2c(c1)OCO2"
category = 3

[[record]]
compound = "Cc1ccccc1CNc1ccc(CNC(=O)[C@H](CCCCNC(=O)OCc2ccccc2)NC(=O)N[C@@H](CC(=O)O)c2ccc3c(c2)OCO3)cc1"
category = 3


Exam item: assign Cc1ccccc1NC(=O)Nc1ccc(CNC(=O)[C@H](CCCCNC(=O)OCc2ccccc2)NC(=O)N[C@@H](CC(=O)O)c2ccc3c(c2)OCO3)cc1 to the correct category. 3

Same lookup for CCSC[C@@H](CSc1ccccc1)NC(=O)N[C@@H](CC(=O)O)c1ccc2c(c1)OCO2 , please. 3

What would you report for CC(C)[C@@H](CSc1ccccc1)NC(=O)N[C@@H](CC(=O)O)c1ccc2c(c1)OCO2 ? 1

Queued: COC(=O)NCCCC[C@H](NC(=O)N[C@@H](CC(=O)O)c1ccc2c(c1)OCO2)C(=O)NCc1ccc(OC)c(O)c1 2

# iterate: CSCC[C@@H](CSc1ccc(NS(C)(=O)=O)cc1)NC(=O)N[C@@H](CC(=O)O)c1ccc2c(c1)OCO2 2

Try CSCC[C@@H](CSc1ccccc1N)NC(=O)N[C@@H](CC(=O)O)c1ccc2c(c1)OCO2 next. 2

Again, but for O=C(O)C[C@H](NC(=O)N[C@@H](CCCCNC(=O)OCc1ccccc1)C(=O)NCCCN1CCCC1=O)c1ccc2c(c1)OCO2 1

Do the same for CCCCC(CSc1ccccc1)OC(=O)N[C@@H](CC(=O)O)c1ccc2c(c1)OCO2 (stereo partly drawn) please 1

Likewise for COC(=O)NCCCC[C@H](NC(=O)N[C@@H](CC(=O)O)c1ccc2c(c1)OCO2)C(=O)NCC1CCNCC1 ? 1

Could you do the same for O=C(O)C[C@H](NC(=O)O[C@@H](CSCc1ccccc1)CSc1ccccc1)c1ccc2c(c1)OCO2 , please? 1

# iterate: CCCC[C@@H](CSc1ccccc1)NC(=O)N[C@@H](CC(=O)O)c1ccc2c(c1)OCO2 2

Same for CCCSC[C@@H](Cc1ccccc1)NC(=O)N[C@@H](CC(=O)O)c1ccc2c(c1)OCO2 1

Repeat for the following compound: CSCC[C@@H](CSc1ccccc1)NC(=O)NCCC(=O)O 1

Ok, now COC(=O)NCCCC[C@@H](CSc1ccccc1)NC(=O)N[C@@H](CC(=O)O)c1ccc2c(c1)OCO2 2

Another compound: CSCC[C@@H](CSc1ccccc1C)NC(=O)N[C@@H](CC(=O)O)c1ccc2c(c1)OCO2 2

// repeat for O=C(O)C[C@H](NC(=O)N[C@@H](CCCCNC(=O)OCc1ccccc1)C(=O)NCCc1ccccn1)c1ccc2c(c1)OCO2 and report 1

Ok, now O=C(O)C[C@H](NC(=O)NCCSc1ccccc1)c1ccc2c(c1)OCO2 1

Lookup CCSC[C@@H](COCc1ccccc1)OC(=O)N[C@@H](CC(=O)O)c1ccc2c(c1)OCO2 1

And the next one, CC(C)[C@@H](CSCCCc1ccccc1)NC(=O)N[C@@H](CC(=O)O)c1ccc2c(c1)OCO2 ? 1

Quick one: CCCCCCCCSC[C@@H](CSc1ccccc1)NC(=O)N[C@@H](CC(=O)O)c1ccc2c(c1)OCO2 1
